Entries and their Inhibition % values follow.
# target-or-system: Parkinson's disease protein 7 (PARK7/DJ1) (human, UniProt Q99497)
# Sequence (Q99497 whole entry, looked up): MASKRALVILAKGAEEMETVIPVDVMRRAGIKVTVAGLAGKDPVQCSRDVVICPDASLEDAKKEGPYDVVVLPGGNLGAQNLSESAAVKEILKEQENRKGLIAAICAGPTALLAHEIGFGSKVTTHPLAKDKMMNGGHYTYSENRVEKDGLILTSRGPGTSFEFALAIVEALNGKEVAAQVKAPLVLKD
# test-description: primary screen, percent inhibition; higher = more effect of the substance
# condition-notes: 100 µM
The campaign covered roughly 7,900 compounds. About 400 (5.1%) showed an effect of 50% or more. The full list was thinned out, with strong results kept by preference.
Quick note: give the figure in %, leave out the unit.

Give the reported value of Inhibition % for this record: COC(=O)c1ccc(Cl)c(S(=O)(=O)F)c1
9.08

* * *

# target-or-system: Parkinson's disease protein 7 (PARK7/DJ1) (human, UniProt Q99497)
# test-description: primary screen, percent inhibition; read as competition with a fluorescent probe by fluorescence polarization; higher = more effect of the substance
# condition-notes: 100 µM
The campaign covered roughly 7,900 compounds. About 400 (5.1%) showed an effect of 50% or more. Many of the other results were omitted from the sample, so strong results are more common in it than they were.
reported-endpoint: Inhibition % (%)
Quick note: give the figure in %, leave out the unit.

Field: example entries. Status: answers known.
>>> print(df.to_string())
                                   compound  data_value
0            Cc1ccc(Cc2cnc(NC(=O)CCl)s2)cc1        7.26
1                 O=C(CCl)c1cnc(N2CCCCC2)s1        8.03
2  C=CC(=O)N(C)CC(=O)N1c2ccccc2NC(=O)CC1C (stereo not shown)        1.23

Give the reported value of Inhibition % for this record: O=C(CCl)NC(=O)NCCc1cccs1
11.2
